Provenance of the data: patent US9464092B2

Test: Mouse pharmacokinetics (oral gavage / intravenous)
Assay type: in vivo, mice
Conditions: plasma, iv; mouse, 10 mg/kg i.v.
parameter-measured: AUC(0-inf) (µM·h)

INSERT INTO results (smiles_repr, measurement_unit, result_number) VALUES
  ('CC(C)N1CCN(c2ccc(Nc3ncc4cc5n(c4n3)C3(CCCCC3)CNC5=O)nc2)CC1', 'µM·h', 1.1),
  ('O=C1NCC2(CCCCC2)n2c1cc1cnc(Nc3ccc(N4CCNCC4)cn3)nc12', 'µM·h', 0.95),
  ('CN1CCN(c2ccc(Nc3ncc4cc5n(c4n3)C3(CCCCC3)CNC5=O)nc2)CC1', 'µM·h', 1.3),
  ('O=C1NCC2(CCCCC2)n2c1cc1cnc(Nc3ccc(N4CCC(N5CCOCC5)CC4)cn3)nc12', 'µM·h', 0.76);
